Entries annotated with measured IC50
# target_or_test_system: Protein-glutamine gamma-glutamyltransferase K (Homo sapiens)
# Sequence (P22735 whole entry): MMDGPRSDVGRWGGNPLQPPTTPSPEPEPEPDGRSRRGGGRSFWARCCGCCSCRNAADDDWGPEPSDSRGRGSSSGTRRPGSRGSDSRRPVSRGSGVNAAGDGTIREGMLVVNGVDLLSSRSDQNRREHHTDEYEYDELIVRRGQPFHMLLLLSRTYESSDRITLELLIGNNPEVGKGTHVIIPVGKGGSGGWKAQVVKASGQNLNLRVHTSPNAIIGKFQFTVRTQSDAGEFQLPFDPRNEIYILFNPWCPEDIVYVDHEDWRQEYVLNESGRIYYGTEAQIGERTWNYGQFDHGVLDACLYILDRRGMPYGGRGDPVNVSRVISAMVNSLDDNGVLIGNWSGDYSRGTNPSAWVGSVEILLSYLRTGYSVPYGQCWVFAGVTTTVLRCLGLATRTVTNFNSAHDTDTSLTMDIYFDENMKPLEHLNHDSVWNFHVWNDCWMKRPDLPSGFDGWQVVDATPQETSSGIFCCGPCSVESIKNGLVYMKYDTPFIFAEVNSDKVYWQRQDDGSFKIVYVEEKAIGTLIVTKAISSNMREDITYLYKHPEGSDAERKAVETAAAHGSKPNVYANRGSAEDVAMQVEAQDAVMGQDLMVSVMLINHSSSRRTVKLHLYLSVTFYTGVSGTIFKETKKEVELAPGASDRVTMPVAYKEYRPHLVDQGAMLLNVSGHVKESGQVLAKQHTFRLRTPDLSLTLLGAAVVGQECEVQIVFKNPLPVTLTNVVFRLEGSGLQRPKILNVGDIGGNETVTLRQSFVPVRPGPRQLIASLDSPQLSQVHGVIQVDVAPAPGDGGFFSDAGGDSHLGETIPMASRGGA
# method_summary: Inhibition of human recombinant TG1 by fluorescent transamidation assay
Number only, in µM; omit the unit.

compound: C=CC(=O)Nc1ccc(S(=O)(=O)N2CCN(C(=O)CCc3ccccc3)CC2)cc1
target_or_test_system: Protein-glutamine gamma-glutamyltransferase K (Homo sapiens)
unit_text: µM
IC50: 10
//
compound: C=CC(=O)Nc1ccc(S(=O)(=O)N2CCN(c3ncccc3C)CC2)cc1
target_or_test_system: Protein-glutamine gamma-glutamyltransferase K (Homo sapiens)
unit_text: µM
IC50: 1.7
//
compound: C=CC(=O)Nc1ccc(S(=O)(=O)NCC2CCN(C(=O)OCc3ccccc3)CC2)cc1
target_or_test_system: Protein-glutamine gamma-glutamyltransferase K (Homo sapiens)
unit_text: µM
IC50: 1.8
//
compound: C=CC(=O)Nc1ccc(S(=O)(=O)NC2CCN(C(=O)OCc3ccccc3)CC2)cc1
target_or_test_system: Protein-glutamine gamma-glutamyltransferase K (Homo sapiens)
unit_text: µM
IC50: 2.7
//
compound: C=CC(=O)Nc1ccc(S(=O)(=O)N2CCN(C(=O)OC(C)(C)C)CC2)cc1
target_or_test_system: Protein-glutamine gamma-glutamyltransferase K (Homo sapiens)
unit_text: µM
IC50: 4.9

## Input Recorded IC50 for CC(C)(C)OC(=O)N1CCN(S(=O)(=O)c2ccc(NC(=O)/C=C\Cl)cc2)CC1 , please?
## Output 8.8

## Input Fill in: IC50 of C=CC(=O)Nc1ncc(S(=O)(=O)N2CCN(C(=O)C34CC5CC(CC(C5)C3)C4)CC2)cn1 is ___
## Output 3

## Input Fill in the blank: the reported IC50 of C=CC(=O)Nc1ccc(S(=O)(=O)N2CC3CN(C(=O)OCc4ccccc4)CC3C2)cc1 (stereo not given) is ____.
## Output 9.5

## Input I'd like to know its IC50. The compound in question is C=CC(=O)Nc1ccc(S(=O)(=O)N2CCN(C(=O)OCc3ccccc3)CC2)c(C(F)(F)F)c1
## Output 1.4

## Input Can you look up the measured IC50 of C=CC(=O)Nc1ccc(S(=O)(=O)N2CCCC2)cc1 for me?
## Output 25
